Molecular target: full length SGK1 (Homo sapiens, UniProt O00141)
Construct: 125 μM full length SGK1 (Life Technologies Part #PR7358A); purchased Life Technologies PR7358A
Sequence (O00141 1-431): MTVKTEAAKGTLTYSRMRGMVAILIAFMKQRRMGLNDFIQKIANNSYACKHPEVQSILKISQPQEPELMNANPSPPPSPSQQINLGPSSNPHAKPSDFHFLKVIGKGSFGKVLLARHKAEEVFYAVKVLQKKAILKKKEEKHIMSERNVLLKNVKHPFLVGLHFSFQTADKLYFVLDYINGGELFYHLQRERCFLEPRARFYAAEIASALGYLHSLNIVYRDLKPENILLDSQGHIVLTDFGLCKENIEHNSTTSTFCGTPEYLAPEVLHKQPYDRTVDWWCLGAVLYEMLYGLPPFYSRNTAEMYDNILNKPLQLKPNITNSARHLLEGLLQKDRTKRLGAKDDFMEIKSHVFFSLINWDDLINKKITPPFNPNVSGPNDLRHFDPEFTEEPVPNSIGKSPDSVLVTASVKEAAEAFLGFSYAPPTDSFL
Assay: SGK1 inhibition Assay A (Caliper LabChip electrophoretic separation of fluorescent peptide substrate and phosphorylated product)
Type: biochemical
Settings: Assay A; 20 μM ATP, 40 min incubation; read-out: SGK1 IC50
pIC50: −log10 of the molar value. Counter-ions that a name gives are not always drawn.
Mark TRUE for reported pIC50 of 8 or greater; mark FALSE for anything smaller.

Example cases with answers are listed next.
Cn1cc(-c2cc(N3CCC[C@@H](NC(=O)c4ccc(Cl)s4)C3)c3c(N)ncnn23)nn1 [Example 868]; FALSE
CC(=O)N1CC=C(c2cc(N3CCC[C@@H](NC(=O)c4sc(Cl)cc4OCCN(C)C)C3)c3c(N)ncnn23)C1 [Example 175, TFA]; TRUE
CC(=O)N1CC=C(c2cc(N3CCC[C@@H](NC(=O)c4sc(C)cc4N4CCOCC4)C3)c3c(N)ncnn23)C1 [Example 268]; FALSE
CC(=O)N1CC=C(c2cc(N3CCC[C@@H](NC(=O)c4cccc(C)n4)C3)c3c(N)ncnn23)C1 [Example 448]; TRUE
Nc1ncnn2c(-c3ccnc(C(F)F)c3)cc(N3CCC[C@@H](NC(=O)c4sc(Cl)cc4OC4CCNC4)C3)c12 (some centres unmarked) [Example 586]; TRUE
CS(=O)(=O)c1ccc(-c2cc(N3CCCC(NC(=O)c4ccccc4)C3)c3c(N)ncnn23)cc1 (centres unmarked) [Example 4]; FALSE
COc1ncc(-c2cc(N3CCC[C@@H](NC(=O)c4cccc(N5CCN(C)CC5)n4)C3)c3c(N)ncnn23)cn1 [Example 788]; FALSE
COC(=O)N1CC=C(c2cc(N3CCC[C@@H](NC(=O)c4sc(Cl)cc4OC4CN(CC(F)F)C4)C3)c3c(N)ncnn23)C1 [Example 385]; FALSE
COC(=O)NCCOc1cc(C(F)F)sc1C(=O)N[C@@H]1CCCN(c2cc(C3=CCN(C(=O)OC)C3)n3ncnc(N)c23)C1 [Example 428]; FALSE

Does pIC50 meet or surpass 8 for CC(=O)N1CC=C(c2cc(N3CCC[C@@H](NC(=O)c4cccc(N5CC[C@H](O)C5)n4)C3)c3c(N)ncnn23)C1 [Example 779] ?
FALSE

====

SGK1 (Homo sapiens) IC50 data
Reply numerically in nM, unit not repeated.

CCC1=C(c2cc(N3CCC[C@@H](NC(=O)c4sc(C)nc4O[C@H]4CC[C@@H](N(C)C)CC4)C3)c3c(N)ncnn23)COC1=O [Example 1018]; 0.8
Cc1nc(OC2CCC(N3CC(C)C3)CC2)c(C(=O)N[C@@H]2CCCN(c3cc(C4=CC(=O)OC4)n4ncnc(N)c34)C2)s1 (stereo partly drawn) [Example 999]; 0.7

Kindly review the next compound as well.
Given the entry CC(C)N1CC2(CN(c3cccc(C(=O)N[C@@H]4CCCN(c5cc(-c6cc(F)c(-n7cnnn7)c(F)c6)n6ncnc(N)c56)C4)n3)C2)C1 [Example 826] , what IC50 was observed with SGK1 (Homo sapiens)?
3

====

Biological target: full length SGK1 (Homo sapiens, UniProt O00141)
Construct: 125 μM full length SGK1 (Life Technologies Part #PR7358A); purchased Life Technologies PR7358A
Sequence (O00141 1-431): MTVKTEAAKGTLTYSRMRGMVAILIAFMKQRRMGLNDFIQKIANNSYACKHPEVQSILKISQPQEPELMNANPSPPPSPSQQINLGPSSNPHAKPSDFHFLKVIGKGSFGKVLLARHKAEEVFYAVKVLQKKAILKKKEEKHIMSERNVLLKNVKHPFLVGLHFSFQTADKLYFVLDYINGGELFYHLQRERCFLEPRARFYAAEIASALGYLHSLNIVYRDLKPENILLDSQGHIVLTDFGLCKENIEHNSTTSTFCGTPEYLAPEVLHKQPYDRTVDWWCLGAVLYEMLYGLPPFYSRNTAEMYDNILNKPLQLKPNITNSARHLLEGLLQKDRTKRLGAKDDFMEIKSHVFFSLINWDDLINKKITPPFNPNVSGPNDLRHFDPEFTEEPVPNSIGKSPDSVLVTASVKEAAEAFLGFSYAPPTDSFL
Assay: SGK1 inhibition Assay A (Caliper LabChip electrophoretic separation of fluorescent peptide substrate and phosphorylated product)
Format: biochemical
Details: Assay A; 20 μM ATP, 40 min incubation; read-out: SGK1 IC50
Structures can show the parent of a compound that is named as a salt.
Each record's IC50 is compared with 0 (below 5 nM), 1 (5 nM to below 60 nM), 2 (60 nM or more) to give its class.

Use these answered entries as a reference point.
CC(C)Cn1cc(-c2cc(N3CCC[C@@H](NC(=O)c4cc5ccccc5[nH]4)C3)c3c(N)ncnn23)ccc1=O; 2
COC(=O)N1CC=C(c2cc(N3CCC[C@@H](NC(=O)c4sc(Cl)cc4OC4CCN(C(C)C)CC4)C3)c3c(N)ncnn23)C1; 0
CC(=O)N1CC=C(c2cc(N3CCC[C@@H](NC(=O)c4sc(Cl)cc4OC4CC5(C4)CN(C)C5)C3)c3c(N)ncnn23)C1; 0
CC(=O)N1CC=C(c2cc(N3CCC[C@@H](NC(=O)c4cccc(N5CCN6CCCC6C5)n4)C3)c3c(N)ncnn23)C1 (stereo partly drawn); 0
Nc1ncnn2c(-c3ccc(Cl)nc3)cc(N3CCC[C@@H](NC(=O)c4ccc(Cl)s4)C3)c12; 1
CC(=O)N1CC=C(c2cc(N3CCC[C@@H](NC(=O)c4cnc(C)cn4)C3)c3c(N)ncnn23)C1; 2

Consider CC(=O)N1CC=C(c2cc(N3CCC[C@@H](NC(=O)c4cccnc4OCCN(C)C)C3)c3c(N)ncnn23)C1 . To which IC50 class does it belong?
2

Would you mind sorting CCc1ccc(C(=O)N[C@@H]2CCCN(c3cc(-c4ccc(S(C)(=O)=O)cc4)n4ncnc(N)c34)C2)s1 into the appropriate category?
1

Which of the defined bands does the recorded IC50 of CN(C)CCOc1cc(Cl)sc1C(=O)N[C@@H]1CCCN(c2cc(C3=CCN(C(=O)C4CCC4)C3)n3ncnc(N)c23)C1 [Example 178, TFA] sit within?
1

====

Biological target: full length SGK1 (Homo sapiens, UniProt O00141)
Construct: 125 μM full length SGK1 (Life Technologies Part #PR7358A); purchased Life Technologies PR7358A
Sequence (O00141 1-431): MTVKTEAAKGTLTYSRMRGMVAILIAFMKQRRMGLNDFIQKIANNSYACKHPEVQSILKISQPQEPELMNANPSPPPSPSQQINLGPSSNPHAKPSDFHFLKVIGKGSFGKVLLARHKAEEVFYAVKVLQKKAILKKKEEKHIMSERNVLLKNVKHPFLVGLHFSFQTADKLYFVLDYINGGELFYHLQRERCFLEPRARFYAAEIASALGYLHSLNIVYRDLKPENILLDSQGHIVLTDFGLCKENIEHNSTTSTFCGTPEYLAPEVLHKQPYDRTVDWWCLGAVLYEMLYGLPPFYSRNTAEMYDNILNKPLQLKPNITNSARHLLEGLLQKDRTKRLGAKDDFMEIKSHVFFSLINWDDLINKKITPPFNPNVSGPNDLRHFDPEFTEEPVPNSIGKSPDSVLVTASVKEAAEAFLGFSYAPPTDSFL
Assay: SGK1 inhibition Assay A (Caliper LabChip electrophoretic separation of fluorescent peptide substrate and phosphorylated product)
Type: biochemical
Conditions: Assay A; 20 μM ATP, 40 min incubation; read-out: SGK1 IC50
reported_endpoint: pIC50
Here pIC50 is given on a logarithmic scale as minus log10 of the concentration in mol/L.

A selection of reference data follows.
COC(=O)N1CC=C(c2cc(N3CCC[C@@H](NC(=O)c4sc5ccccc5c4OC4CCN(C(C)C)CC4)C3)c3c(N)ncnn23)C1 [Example 659]; 8.15
CC(=O)N1CC=C(c2cc(N3CCC[C@@H](NC(=O)c4cccc(N5CCNCC5)n4)C3)c3c(N)ncnn23)C1 [Example 813]; 7.49
Nc1ncnn2c(C3=CCN(C(=O)[C@H]4CCNC4)C3)cc(N3CCC[C@@H](NC(=O)c4ccc(Cl)s4)C3)c12 [Example 891]; 7.60
Nc1ncnn2c(-c3ccnc(C(F)F)c3)cc(N3CCC[C@@H](NC(=O)c4ccc(C(F)F)s4)C3)c12 [Example 482]; 8.22
CS(=O)(=O)c1ccc(-c2cc(N3CCC[C@@H](C(=O)Nc4nccs4)C3)c3c(N)ncnn23)cc1 [Example 104]; 6.61
CC(=O)N1CC=C(c2cc(N3CCC[C@@H](NC(=O)c4sc(C(F)F)cc4OC4CCN(C)CC4)C3)c3c(N)ncnn23)C1 [Example 438]; 8.22

Please report the recorded pIC50 for CS(=O)(=O)c1ccc(-c2cc(N3CCC[C@@H](NC(=O)c4cn5ccsc5n4)C3)c3c(N)ncnn23)cc1 [Example 45] .
7.55

Would you mind telling me what pIC50 value was observed for CC(=O)N1CC=C(c2cc(N3CCC[C@@H](NC(=O)c4nn(-c5ccccc5)nc4C)C3)c3c(N)ncnn23)C1 [Example 471] ?
6.84

Could you tell me which pIC50 is on file for Cc1cc(-c2cc(N3CCC[C@@H](NC(=O)c4sc(Cl)cc4OCCN(C)C)C3)c3c(N)ncnn23)cn(C)c1=O [Example 691] ?
6.94

pIC50 lookup needed for CN(C)CCOc1cc(C2CC2)sc1C(=O)N[C@@H]1CCCN(c2cc(-c3ccc(C#N)nc3)n3ncnc(N)c23)C1 [Example 372] , thanks.
8.70

Endpoint output: pIC50 of N#Cc1ccc(-c2cc(N3CCC[C@@H](NC(=O)c4cc5cc(F)ccc5[nH]4)C3)c3c(N)ncnn23)cn1 [Example 515] . Value?
6.89

Sample Nc1ncnn2c(-c3ccc(=O)n(C(F)F)c3)cc(N3CCC[C@@H](NC(=O)c4ccc(Cl)s4)C3)c12 [Example 537] — what was its pIC50?
8.70

Please look up its pIC50: COC(C(=O)N1CC=C(c2cc(N3CCC[C@@H](NC(=O)c4sc(Cl)cc4OCCN4CCOCC4)C3)c3c(N)ncnn23)C1)C1CC1 (stereo partly shown) [Example 260]
7.32

For Nc1ncnn2c(-c3ccnc(C(F)F)c3)cc(N3CCC[C@@H](NC(=O)c4ccc(Cl)s4)C3)c12 [Example 483] , what is its reported pIC50?
8.40

Which pIC50 is listed for Nc1ncnn2c(-c3ccnc(C(F)F)c3)cc(N3CCC[C@@H](NC(=O)c4sc(Cl)cc4OCCN4CCOCC4)C3)c12 [Example 341] ?
8.70

Please report the recorded pIC50 for CN(C)CCOc1c(C(=O)N[C@@H]2CCCN(c3cc(-c4ccc(C(N)=O)nc4)n4ncnc(N)c34)C2)sc2ccncc12 [Example 670] .
7.40

Which pIC50 reading was recorded for the molecule Nc1ncnn2c(-c3ccnc(C(F)F)c3)cc(N3CCC[C@@H](NC(=O)c4sc(C(F)F)cc4N4CCOCC4)C3)c12 [Example 344] ?
8.15

Where do the numbers come from? From patent US20260250290A1.
